Assay: Solubility of parent compounds and prodrugs in phosphate buffer
Assay type: physicochemical
Conditions: aqueous buffer, thermodynamic from solid; prodrug, phosphate buffer adjusted with NaOH, 25° C., more than 4 weeks, pH 7.2
experimentalReadout: solubility (mg/mL)
Answers are plain numbers, in mg/mL.

Input: Look up solubility: CCc1c(Cl)nc(C(=O)N[C@@H]2CCN(c3nnc([C@@H](O)CO)s3)C[C@@H]2OC)n1COP(=O)(O)O
Output: 102

Source listed as patent US10752647B2.
